Recorded values, source PubChem BioAssay (NCI).

tested on: NCI-H522 lung; experiment: NCI-60 one-dose screen, 48 h; settings: 10 µM unless noted
About 83,000 compounds went through this panel and 20% of them were active in at least one assay; those are over-represented in the sample as a whole. Activity calls are given as the source filed them. Rule for the calls: active = growth percent below 10; inactive = the rest.
Respond with a class label; see yes (1) for active, no (0) for inactive

Compound | Assayed system | Classification
C=C1C[C@](OC)([C@H](O)C(=O)N[C@@H](OC)[C@@H]2C[C@@H](O)C(C)(C)[C@@H](C[C@@H](COC)OC)O2)O[C@H](C)[C@@H]1C | NCI-H522 lung | yes (1)

Q: What did this assay record as the result for CC[C@H](C)[C@H](NC(=O)C12C3C4C1C1C2C3C41NC(C)=O)C(=O)N(C)[C@H](C[C@@H](OC(C)=O)c1nc(C(=O)N[C@@H](Cc2ccccc2)C[C@H](C)C(=O)OC)cs1)C(C)C (some centres undefined) ?
A: yes (1)

Q: Dear colleague, could you share the recorded outcome for CNC12C3C4C1C1C2C3C41C(=O)N[C@H](C(=O)N(C)[C@H](C[C@@H](OC(C)=O)c1nc(C(=O)N[C@@H](Cc2ccccc2)C[C@H](C)C(=O)OC)cs1)C(C)C)C1CC1 (some centres undefined) when you have a moment?
A: yes (1)

Q: How did this test come out for Nc1ccc2c(c1)Cc1cc(Br)ccc1-2 ?
A: no (0)
